Reference source: paper PMC5540273

- Test system: p38-alpha;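 note: KINOMEscan kinase panel screen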
- Construct: gene MAPK14
- Cond: concentration: 1 μM,replicates: in singlicate; n = 1
The entries below come with measured %Inh values attached.
Response body: numeric value in %, unit text excluded.

COc1ccc(C[C@@H](CN)NC(=O)c2cc(Br)c(-c3ccnc4[nH]ccc34)s2)cc1.Cl.Cl :: 0
CC(C)N1C(=O)Cc2cc(Nc3ncc(C(F)(F)F)c(NCc4cccc(S(C)(=O)=O)c4)n3)ccc21 :: 96.4
CCN(CC)CCCCNc1ncc2cc(-c3c(Cl)cccc3Cl)c(NC(=O)NC(C)(C)C)nc2n1 :: 98.2
CN(C)CCOc1ccc(-c2cc(-c3c[nH]nc3-c3ccccn3)ccn2)cc1 :: 16
Cl.Cl.Nc1nc(-c2ccc3c(N)n[nH]c3c2)cc(N2CCCC(NC(=O)c3ccccc3)C2)n1 (centres unmarked) :: 0

QUERY: Give its %Inh value. Item: O=C(NCCCN1CCOC1=O)c1cnc(NCc2cc(Cl)ccc2Cl)nc1NC1CCCC1
RESULT: 9

QUERY: Value lookup for %Inh; key = Nc1nc(Nc2ccccc2)cc(-c2ccc3c(N)n[nH]c3c2)n1
RESULT: 0

QUERY: Item CCn1c(-c2nonc2N)nc2c(C#CC(C)(C)O)nc(OCCN)cc21.Cl.Cl has what recorded %Inh?
RESULT: 0
